Tested on: oxymorphonazine (OMZ)-induced analgesia
assay-name: antagonism of oxymorphonazine (OMZ)-induced analgesia (tail flick) in rats
Type: in vivo, rat
test-settings: S.C.; dose tested (mg/kg): Naltrexone 0.5, Nalmefene 1.0, XI 10.0, XII 2.5, XIII 0.5, XIV 5.0
# maps each entry to its Percent Antagonism at 2 Hr

molecule	unit-name	Percent Antagonism at 2 Hr
O=C1CC[C@@]2(O)[C@H]3Cc4ccc(O)c5c4[C@@]2(CCN3CC2CC2)[C@H]1O5 [Naltrexone, naltrexone]	%	79
Oc1ccc2c3c1O[C@H]1C(=NOc4ccccc4)CC[C@@]4(O)[C@@H](C2)N(CC2CC2)CC[C@]314	%	91
Oc1ccc2c3c1O[C@H]1C(=NOC4CCCc5ccccc54)CC[C@@]4(O)[C@@H](C2)N(CC2CC2)CC[C@]314 (stereo partly drawn)	%	82
C=C1CC[C@@]2(O)[C@H]3Cc4ccc(O)c5c4[C@@]2(CCN3CC2CC2)[C@H]1O5 [Nalmefene, reference compound]	%	83
Oc1ccc2c3c1O[C@H]1C(=NOCc4ccccc4)CC[C@@]4(O)[C@@H](C2)N(CC2CC2)CC[C@]314	%	91
Cc1ccc(ON=C2CC[C@@]3(O)[C@H]4Cc5ccc(O)c6c5[C@@]3(CCN4CC3CC3)[C@H]2O6)cc1C	%	67

###

target-under-test: delta-type opioid receptor (Rattus norvegicus)
Sequence (P33533 whole entry): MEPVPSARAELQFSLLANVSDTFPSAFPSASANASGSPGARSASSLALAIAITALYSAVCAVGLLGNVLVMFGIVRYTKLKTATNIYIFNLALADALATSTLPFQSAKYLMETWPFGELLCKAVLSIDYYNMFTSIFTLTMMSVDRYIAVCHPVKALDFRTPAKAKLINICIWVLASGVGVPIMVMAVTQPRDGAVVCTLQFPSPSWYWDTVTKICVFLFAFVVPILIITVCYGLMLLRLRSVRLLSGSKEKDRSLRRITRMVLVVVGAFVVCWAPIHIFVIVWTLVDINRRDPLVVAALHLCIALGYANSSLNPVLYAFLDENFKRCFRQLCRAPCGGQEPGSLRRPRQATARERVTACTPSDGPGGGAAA
assay-name: inhibition of specific [^3 H] DADLE binding to rat forebrain membranes
test-settings: read-out: (Ki) nM, δ receptor (Rat Forebrain); Table 6; [^3 H] DADLE, mean of three experiments
Procedure: The interaction of some of the novel compounds with mu and delta-type opioid receptors present in brain membranes was examined in vitro. […] DAGO (mu-type receptor) or [^3 H] DADLE (delta-type receptor) was determined using rat forebrain membranes. […] Values represent the MEAN±S.E.M. of the Ki(nM) for each compound to inhibit specific binding of the indicated ligand to rat brain membranes. […] N.D.=not determined […]
Could you please mark t for values of Ki below 0.6 nM and f for values at or above it?

compound	label-class
Cc1cccc(ON=C2CC[C@@]3(O)[C@H]4Cc5ccc(O)c6c5[C@@]3(CCN4CC3CC3)[C@H]2O6)c1C	f
O=C1c2ccccc2C(=O)N1Cc1ccc(ON=C2CC[C@@]3(O)[C@H]4Cc5ccc(O)c6c5[C@@]3(CCN4CC3CC3)[C@H]2O6)cc1	f
ON=C1CC[C@@]2(O)[C@H]3Cc4ccc(O)c5c4[C@@]2(CCN3CC2CC2)[C@H]1O5	f
N=C(N)c1ccc(ON=C2CC[C@@]3(O)[C@H]4Cc5ccc(O)c6c5[C@@]3(CCN4CC3CC3)[C@H]2O6)cc1	f
C=C1CC[C@@]2(O)[C@H]3Cc4ccc(O)c5c4[C@@]2(CCN3CC2CC2)[C@H]1O5 [Nalmefene, reference compound]	f
CC(C)(C)ON=C1CC[C@@]2(O)[C@H]3Cc4ccc(O)c5c4[C@@]2(CCN3CC2CC2)[C@H]1O5	t

###

target-under-test: kappa-type opioid receptor (Cavia porcellus)
Construct: using guiniea pig cerebellum membrane; from tissue; host or cells: guinea pig cerebellum membranes
Sequence (P41144 whole entry): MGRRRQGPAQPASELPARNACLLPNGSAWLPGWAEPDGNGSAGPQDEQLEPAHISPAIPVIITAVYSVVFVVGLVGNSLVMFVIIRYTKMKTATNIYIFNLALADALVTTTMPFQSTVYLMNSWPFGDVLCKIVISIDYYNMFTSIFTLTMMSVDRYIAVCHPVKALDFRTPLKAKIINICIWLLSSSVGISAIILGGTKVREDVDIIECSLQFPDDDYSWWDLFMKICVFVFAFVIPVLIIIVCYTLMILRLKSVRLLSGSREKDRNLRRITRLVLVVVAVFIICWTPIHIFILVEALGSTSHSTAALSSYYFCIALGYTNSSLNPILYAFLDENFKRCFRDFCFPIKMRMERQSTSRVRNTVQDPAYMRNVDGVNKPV
assay-name: inhibition of specific [^3 H] EKC binding to guinea pig cerebellum membrane
test-settings: read-out: (Ki) nM, κ receptor (GP Cerebellum); Table 6; [^3 H] EKC, mean of three experiments
measured-quantity: Ki (nM)

N=C(N)c1ccc(ON=C2CC[C@@]3(O)[C@H]4Cc5ccc(O)c6c5[C@@]3(CCN4CC3CC3)[C@H]2O6)cc1 0.64
